Record form. Attribute: DC50. Fill in for each entry.
biological target: ERα (Homo sapiens, UniProt P03372); construct: host or cells: MCF-7; assay: ER degradation activity in MCF-7 cells (Western blot, grayscale intensity); type: cell-based; conditions: 6 hours treatment, 1 nM to 100 nM, concentration required to degrade 50% of the target protein
Sequence (P03372 whole entry): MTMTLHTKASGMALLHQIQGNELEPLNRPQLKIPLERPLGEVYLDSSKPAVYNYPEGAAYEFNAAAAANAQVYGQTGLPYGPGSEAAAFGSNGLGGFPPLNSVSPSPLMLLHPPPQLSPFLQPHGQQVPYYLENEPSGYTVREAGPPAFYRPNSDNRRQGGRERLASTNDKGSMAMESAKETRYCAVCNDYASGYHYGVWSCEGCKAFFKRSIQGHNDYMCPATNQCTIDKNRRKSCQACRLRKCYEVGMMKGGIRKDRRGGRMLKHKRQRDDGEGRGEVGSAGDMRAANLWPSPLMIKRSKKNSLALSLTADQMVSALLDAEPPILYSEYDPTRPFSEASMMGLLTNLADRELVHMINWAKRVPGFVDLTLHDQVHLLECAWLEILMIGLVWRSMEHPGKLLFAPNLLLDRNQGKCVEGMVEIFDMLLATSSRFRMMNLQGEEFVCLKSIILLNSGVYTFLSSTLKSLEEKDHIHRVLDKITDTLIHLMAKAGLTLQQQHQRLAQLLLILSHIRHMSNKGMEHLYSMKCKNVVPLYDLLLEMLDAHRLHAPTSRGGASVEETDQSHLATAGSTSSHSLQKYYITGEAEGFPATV

Worked cases, answers included:
Ask | For the molecule CC1(C)CC(=C(c2ccc(N3CCC(CN4CCN(c5ccc(N6CCC(=O)NC6=O)cc5)CC4)CC3)nc2)c2ccc3[nH]nc(F)c3c2)CC(C)(C)O1 [Compound 77] , give its measured DC50 value.
Reply | > 100 nM

Ask | For the molecule CC1(C)CC(=C(c2ccc(N3CC4(CCN(C5CCN(c6ccc7c(c6)CN([C@H]6CCC(=O)NC6=O)C7=O)CC5)CC4)C3)nc2)c2ccc3[nH]nc(F)c3c2)CC(C)(C)O1 [Compound 139] , give its measured DC50 value.
Reply | 10 to 100 nM

Ask | For the molecule CN(CC1CCN(c2ccc(C(=C3CC(C)(C)OC(C)(C)C3)c3ccc4[nH]nc(F)c4c3)cn2)CC1)C1CCN(c2cccn3c(N4CCC(=O)NC4=O)cnc23)CC1 [Compound 97] , give its measured DC50 value.
Reply | 10 to 100 nM

Ask | For the molecule CC1(C)CC(=C(c2ccc(N3CCC4(CC(N5CCN(c6ccc7c(c6)CN(C6CCC(=O)NC6=O)C7=O)CC5)C4)C3)nc2)c2ccc3[nH]nc(F)c3c2)CC(C)(C)O1 (stereo not shown) [Compound 49] , give its measured DC50 value.
Reply | > 100 nM

Ask | For the molecule Cn1nc(N2CCC(=O)NC2=O)c2ccc(C3CCN(CC(=O)N4CCN(c5ccc(C(=C6CC(C)(C)OC(C)(C)C6)c6ccc7[nH]nc(F)c7c6)cn5)CC4)CC3)cc21 [Compound 92] , give its measured DC50 value.
Reply | > 100 nM

Please state DC50 for every molecule in the list that follows.
1. CC1(C)CC(=C(c2ccc3[nH]nc(F)c3c2)c2c(F)cc(OC3CN(CC4CN(c5ccc6c(c5)C(=O)N(C5CCC(=O)NC5=O)C6=O)C4)C3)cc2F)CC(C)(C)O1 (stereo not shown) [Compound 26]
2. CC1(C)CC(=C(c2ccc3[nH]nc(F)c3c2)c2c(F)cc(N3CCN(CC4CCN(c5ccc6c(c5)C(=O)N(C5CCC(=O)NC5=O)C6=O)CC4)CC3)cc2F)CC(C)(C)O1 (stereo not shown) [Compound 102]

Reply |
["< 10 nM", "> 100 nM"]

meta.source: patent EP4722209A1
